# EXPERIMENTAL TARGET: HLA A2.1 molecule (human)
# ASSAY INFO: T2 cells, flow cytometry; P1Y variant against its natural peptide
PROPERTY: RA WT/RA Y1

Consider the reported RA WT/RA Y1 for these binders:
YLQPEQLQV (modifications not checked) [HER-2/neu 391Y1]
55.5
YIFGSLAFL (modifications not checked) [HER-2/neu 369Y1]
3.9

Look at each binder and report its RA WT/RA Y1.
1. YLVKSPNHV (modifications not checked) [P1Y variant of HER-2/neu 851]
2. YLYQGCQVV (modifications not checked) [P1Y variant of HER-2/neu 48]
3. YMLGTHTMEV (modifications not checked) [gp100 177Y1]
4. YLLAVLYCL (modifications not checked) [P1Y variant of Tyrosinase 1]
5. YLPWHRLFLL (modifications not checked) [P1Y variant of Tyrosinase 207]

[3, 3, 0.6, "> 3.7", "> 6.4"]
